Readings of IC50 for the listed compounds
test system: HepG2; assay: Cytotoxicity in human HepG2 cells assessed as inhibition of cell proliferation measured by CCK-8 assay; assay type: functional, cell-based
API: value field is a number in µM; no unit string.

Q. Notebook: pull reported IC50 for HepG2, entry `CCCCCCCCCCCCCC(=O)O[C@H]1c2cc3c(cc2[C@@H](c2cc(OC)c(OC)c(OC)c2)[C@H]2C(=O)OC[C@@H]21)OCO3`
A. 88.7

Q. Notebook: pull reported IC50 for HepG2, entry `COc1cc([C@@H]2c3cc4c(cc3[C@H](OC(=O)[C@H](CC(C)C)NC(=O)OC(C)(C)C)[C@H]3COC(=O)[C@H]23)OCO4)cc(OC)c1OC`
A. 60.3

Q. Notebook: pull reported IC50 for HepG2, entry `COc1cc([C@@H]2c3cc4c(cc3[C@H](OC(=O)[C@@H]3CCCN3C(=O)OC(C)(C)C)[C@H]3COC(=O)[C@H]23)OCO4)cc(OC)c1OC`
A. 50.8
